Every entry's value here was drawn from BigSolDB 2.1.

# assay conditions: in n-decanol, 372.15 K
readout kind: solubility (mole fraction)
Please reply with the value in numeric form only.

Identify measured solubility (mole fraction) associated with O=C[C@H](O)[C@@H](O)[C@H](O)[C@H](O)CO
0.00178

====

# assay conditions: in n-decanol, 387.15 K
readout kind: solubility (mole fraction)
Please reply with the value in numeric form only.

Identify measured solubility (mole fraction) associated with O=C[C@H](O)[C@@H](O)[C@H](O)[C@H](O)CO
0.00264

====

# assay conditions: in n-dodecanol, 360.15 K
readout kind: solubility (mole fraction)
Please reply with the value in numeric form only.

Identify measured solubility (mole fraction) associated with O=C[C@H](O)[C@@H](O)[C@H](O)[C@H](O)CO
0.000865

====

# assay conditions: in n-dodecanol, 355.15 K
readout kind: solubility (mole fraction)
Please reply with the value in numeric form only.

Identify measured solubility (mole fraction) associated with O=C[C@H](O)[C@@H](O)[C@H](O)[C@H](O)CO
0.000802

====

# assay conditions: in n-octanol, 374.15 K
readout kind: solubility (mole fraction)
Please reply with the value in numeric form only.

Identify measured solubility (mole fraction) associated with O=C[C@H](O)[C@@H](O)[C@H](O)[C@H](O)CO
0.00241

====

# assay conditions: in n-decanol, 353.15 K
readout kind: solubility (mole fraction)
Please reply with the value in numeric form only.

Identify measured solubility (mole fraction) associated with O=C[C@H](O)[C@@H](O)[C@H](O)[C@H](O)CO
0.000984

====

# assay conditions: in n-dodecanol, 382.15 K
readout kind: solubility (mole fraction)
Please reply with the value in numeric form only.

Identify measured solubility (mole fraction) associated with O=C[C@H](O)[C@@H](O)[C@H](O)[C@H](O)CO
0.00156
